Entries and their pKi
Biological target: T1, human Y2 receptor (P49146, NPY2R_HUMAN, Uniprot) (human, UniProt P49146 1-381)
T1 construct: whole, on cells; also called human NPY Y2 receptor
T1 sequence (looked up): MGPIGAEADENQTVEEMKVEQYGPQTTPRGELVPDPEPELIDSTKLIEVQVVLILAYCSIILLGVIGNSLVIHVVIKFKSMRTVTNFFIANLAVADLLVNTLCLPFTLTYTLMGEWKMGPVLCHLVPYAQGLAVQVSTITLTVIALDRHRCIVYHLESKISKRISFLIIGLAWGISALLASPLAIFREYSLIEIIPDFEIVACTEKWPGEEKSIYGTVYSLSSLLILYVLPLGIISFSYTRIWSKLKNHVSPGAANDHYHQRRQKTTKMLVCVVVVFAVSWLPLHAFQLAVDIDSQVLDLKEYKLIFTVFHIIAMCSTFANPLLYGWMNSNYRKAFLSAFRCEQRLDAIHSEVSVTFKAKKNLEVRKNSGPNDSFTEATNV
Experiment: SPA vs [125I]-PYY(1-36)
Numbered stars: 1 amine (or outer) side, 2 acyl side, 3 side chain; on linkers, the order of the positions; unused ones are H or OH. Side chains are listed from the residue outwards. * marks the point of attachment. C18 diacid = O=C(O)CCCCCCCCCCCCCCCCC(=O)*; γGlu = O=C(O)[C@H](CCC(=O)[*:2])N[*:1]; Isovaleryl = CC(C)CC(=O)*; AEEA = NCCOCCOCC(=O)O
# pKi is unitless: minus log10 of the molar concentration; print number only

binder	pKi
RPEKPPEDASPEELQRYYASLRHYYNWLTRQRY (N-terminal alpha-amino (position 4): 3-methylbutanoyl; Lys7 (hPYY(1-36) numbering) epsilon-amino: [(4S)-4-carboxy-4-[[(4S)-4-carboxy-4-(19-carboxynonadecanoylamino)butanoyl]amino]butanoyl]; C-terminal amide, also called Compound 12; 12)	8.96
Isovaleryl-RPEAPPK([γGlu-AEEA-γGlu-C18 diacid])DASPEELQRYYESLRHYYNWLTRQRY-NH2 (also called Compound 54; 54)	8.51

// query Would you mind telling me what pKi value was observed for RPEKPPEDASPEELQRYYASLRHYYNWLTRQRY (N-terminal alpha-amino (position 4): 3-methylbutanoyl; Lys7 (hPYY(1-36) numbering) epsilon-amino: [2-[2-[2-[[(4S)-4-carboxy-4-(13-carboxytridecanoylamino)butanoyl]amino]ethoxy]ethoxy]acetyl]; C-terminal amide, also called Compound 71; 71) ?
// result 9.29

// query Would you mind telling me what pKi value was observed for Isovaleryl-RPEAPGK([AEEA-AEEA-γGlu-C18 diacid])DASPEELQRYYAELRHYYNWLTRQRY-NH2 (also called Compound 52; 52) ?
// result 9.18

The measurements presented in this section are drawn from patent US20170313750A1.
